# System under test: T1, recombinant human IL-13 (rh-IL-13)-Fc (human, UniProt P35225 35-146, limits assumed)
# T1 construct: used for yeast surface display labelling; not shown: Fc (detected with anti human Fc)
# T1 sequence (P35225 35-146 limits assumed): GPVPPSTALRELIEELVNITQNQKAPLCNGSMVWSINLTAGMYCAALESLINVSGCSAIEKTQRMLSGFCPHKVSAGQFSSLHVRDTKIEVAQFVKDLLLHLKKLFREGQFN
# Assay notes: yeast surface display flow cytometry, 10 nM rh-IL-13-Fc; MFI normalized to expression and to the positive control

{"columns": ["Binder", "binding result"],
 "data": [
  ["C37 (scFv, V domains shown, also called C37-VH-L-VL) VH: QMQLVESGGGVVQPGRSLRLSCAASGFTFRTYGMHWVRQAPGKGLEWVAVIWYDGSNKHYADSVKGRFTITRDNSKNTLNLQMNSLRAEDTAVYYCARAPQWELVAEAFDMWGQGTMVTVSS VL: SYVLTQPPSVSVAPGQTARITCGGNLIGSKLVHWYQQKPGQAPVLVVYDDSDRPSRIPERFSGSNSGNTATLTISRVEAGDEADYYCQVWDSSSDHVVFGGGTKLTVL", "binds"],
  ["C43 (scFv, V domains shown, also called C43-VH-L-VL) VH: QMQLVESGGGVVQPGRSLRLSCAASGFTFRTYGMHWVRQAPGKGLEWVAVIWYDGSNKHYADSVKGRFTITRDNSKNTLNLQMNSLRAEDTAVYYCARAPQWQLVAEAFDIWGQGTMVTVSS VL: SYVLTQPPSVSVAPGQTARITCGGNLIGSKLVHWYQQKPGQAPVLVVYDDSDRPSAIPERFSGSNSGNTATLTISRVEAGDEADYYCQVWDTSSDGVVFGGGTKLTVL", "binds"],
  ["C26 (scFv, V domains shown, also called C26-VH-L-VL) VH: QMQLVESGGGVVQPGRSLRLSCAASGFTFRTYGMHWVRQAPGKGLEWVAVIWYDGSNKHYADSVKGRFTITRDNSKNTLNLQMNSLRAEDTAVYYCARAPQWELTAEAFDLWGQGTMVTVSS VL: SYVLTQPPSVSVAPGQTARITCGGNIIGSKLVHWYQQKPGQAPVLVVYDDGDRPSGIPERFSGSNSGNTATLTISRVEAGDEADYYCQVWDTSSDHVVFGGGTKLTVL", "binds"]
]}
